# SYSTEM TESTED: T1, Recombinant human FAP (R&D systems, #3715-SE) (human, UniProt Q12884 26-760)
# T1 construct: bought; in SPR captured on immobilized anti-FAP antibody MAB3715; also called rhFAP; human recombinant FAP
# T1 sequence (Q12884 26-760 limits assumed): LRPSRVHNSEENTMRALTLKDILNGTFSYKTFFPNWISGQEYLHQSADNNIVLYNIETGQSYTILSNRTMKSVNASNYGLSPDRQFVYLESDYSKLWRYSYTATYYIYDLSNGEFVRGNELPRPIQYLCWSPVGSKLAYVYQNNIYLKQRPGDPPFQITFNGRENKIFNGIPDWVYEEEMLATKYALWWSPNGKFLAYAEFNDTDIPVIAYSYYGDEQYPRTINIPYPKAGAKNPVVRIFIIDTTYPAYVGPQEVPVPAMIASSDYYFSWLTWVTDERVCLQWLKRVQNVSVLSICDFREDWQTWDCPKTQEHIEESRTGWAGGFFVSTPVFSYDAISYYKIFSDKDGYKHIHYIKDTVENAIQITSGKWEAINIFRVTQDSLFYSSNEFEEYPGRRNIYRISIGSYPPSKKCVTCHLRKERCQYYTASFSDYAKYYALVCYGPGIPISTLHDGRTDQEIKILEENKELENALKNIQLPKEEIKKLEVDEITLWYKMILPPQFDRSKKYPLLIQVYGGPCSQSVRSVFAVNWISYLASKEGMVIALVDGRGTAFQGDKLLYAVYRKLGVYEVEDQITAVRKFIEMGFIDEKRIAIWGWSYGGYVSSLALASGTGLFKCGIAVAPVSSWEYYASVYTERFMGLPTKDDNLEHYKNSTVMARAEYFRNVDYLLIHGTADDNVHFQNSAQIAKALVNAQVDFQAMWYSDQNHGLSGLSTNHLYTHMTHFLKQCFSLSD
# PROTOCOL NOTES: SPR (Biacore T200), FAP captured on anti-FAP antibody, single cycle kinetics
Numbered stars: 1 amine (or outer) side, 2 acyl side, 3 side chain; on linkers, the order of the positions; unused ones are H or OH. Bridge positions count the residues as written; N and C are the ends. Square brackets hold non-standard residues; d marks the D form. Primed or numbered codes have the meaning given here. * marks the point of attachment. Ttds″ = 1,13-diamino-4,7,10-trioxatridecan-succinamic acid spacer, O=C(CCC(=O)[*:2])NCCCOCCOCCOCCCN[*:1]; TBMB(SCH2CH2NH-DOTA) = O=C(O)CN1CCN(CC(=O)O)CCN(CC(=O)NCCSCc2cc(C[*:1])cc(C[*:2])c2)CCN(CC(=O)O)CC1; Ttds = 1,13-diamino-4,7,10-trioxatridecan-succinamic acid, O=C(CCC(=O)[*:2])NCCCOCCOCCOCCCN[*:1]; 3MeBn = 3-Methylbenzylidene (m-xylylene thioether bridge from α,α′-dibromo-m-xylene); Ttds(4) = spacer between chelator and peptide, O=C(CCC(=O)[*:2])NCCCOCCOCCOCCCN[*:1]; N4Ac = 6-Carboxy-1,4,8,11-tetraazaundecane, an N4-chelator, NCCNCC(CNCCN)C(=O)*; DOTA = O=C(O)CN1CCN(CC(=O)O)CCN(CC(=O)*)CCN(CC(=O)O)CC1; mXylylene = c1cc(C[*:1])cc(C[*:2])c1; Pentanesulfonyl = CCCCCS(=O)(=O)*; Nle = CCCC[C@H](N)C(=O)O; PEG6′ = not defined here; Hexanoyl = CCCCCC(=O)*; NH(CH2)5NH2 = NCCCCCN*; GABA = NCCCC(=O)O
Hi there, I'd appreciate the recorded pKD Category for every entry that follows.

// recorded pKD Category for N4Ac-[PEG6′][Nle]CPPTEFC-OH (linker 3-9 via 3MeBn, also called 3BP-4221) [N4Ac-PEG6-Nle-[Cys-(3MeBn)-Pro-Pro-Thr-Glu-Phe-Cys]-OH] : > 8 pKD

// recorded pKD Category for Ac-MCPPTEFCDHFRD-NH2 (linker 2-8 via mXylylene; SMILES CSCC[C@H](NC(C)=O)C(=O)N[C@H]1CSCc2cccc(c2)CSC[C@@H](C(=O)N[C@@H](CC(=O)O)C(=O)N[C@@H](Cc2c[nH]cn2)C(=O)N[C@@H](Cc2ccccc2)C(=O)N[C@@H](CCCNC(=N)N)C(=O)N[C@@H](CC(=O)O)C(N)=O)NC(=O)[C@H](Cc2ccccc2)NC(=O)[C@H](CCC(=O)O)NC(=O)[C@H]([C@@H](C)O)NC(=O)[C@@H]2CCCN2C(=O)[C@@H]2CCCN2C1=O, also called 3BP-2975) [Ac-Met-[Cys(3MeBn)-Pro-Pro-Thr-Glu-Phe-Cys]-Asp-His-Phe-Arg-Asp-NH2] : > 8 pKD

// recorded pKD Category for Hexanoyl-CPPTQFCD-{NH(CH2)5NH2-DOTA′} (linker 1-7 via mXylylene, also called 3BP-3403) [Hex-[Cys(3MeBn)-Pro-Pro-Thr-Gln-Phe-Cys]-Asp-Ape-NH-DOTA′] : > 8 pKD

// recorded pKD Category for Hexanoyl-CPPTQFCD-OH (linker 1-7 via tMeBn(DOTA-AET), also called 3BP-3665) [Hex-[Cys(tMeBn(DOTA-AET))-Pro-Pro-Thr-Gln-Phe-Cys]-Asp-OH] : > 8 pKD

// recorded pKD Category for {DOTA}-[Ttds(4)][Nle]CPPTQFCD-NH2 (linker 3-9 via mXylylene; SMILES CCCC[C@H](NC(=O)CCC(=O)NCCCOCCOCCOCCCNC(=O)CN1CCN(CC(=O)O)CCN(CC(=O)O)CCN(CC(=O)O)CC1)C(=O)N[C@H]1CSCc2cccc(c2)CSC[C@@H](C(=O)N[C@@H](CC(=O)O)C(N)=O)NC(=O)[C@H](Cc2ccccc2)NC(=O)[C@H](CCC(N)=O)NC(=O)[C@H]([C@@H](C)O)NC(=O)[C@@H]2CCCN2C(=O)[C@@H]2CCCN2C1=O, also called 3BP-3401) [DOTA-Ttds-Nle-[Cys(3MeBn)-Pro-Pro-Thr-Gln-Phe-Cys]-Asp-NH2] : > 8 pKD

// recorded pKD Category for Hexanoyl-CPPTEFCD[GABA]R-NH2 (linker 1-7 via mXylylene; SMILES CCCCCC(=O)N[C@H]1CSCc2cccc(c2)CSC[C@@H](C(=O)N[C@@H](CC(=O)O)C(=O)NCCCC(=O)N[C@@H](CCCNC(=N)N)C(N)=O)NC(=O)[C@H](Cc2ccccc2)NC(=O)[C@H](CCC(=O)O)NC(=O)[C@H]([C@@H](C)O)NC(=O)[C@@H]2CCCN2C(=O)[C@@H]2CCCN2C1=O, also called 3BP-3300) [Hex-[Cys(3MeBn)-Pro-Pro-Thr-Glu-Phe-Cys]-Asp-Gab-Arg-NH2] : > 8 pKD

// recorded pKD Category for {DOTA}-[Ttds][Nle]CPPTEFCD-NH2 (linker 3-9 via mXylylene; SMILES CCCC[C@H](NC(=O)CCC(=O)NCCCOCCOCCOCCCNC(=O)CN1CCN(CC(=O)O)CCN(CC(=O)O)CCN(CC(=O)O)CC1)C(=O)N[C@H]1CSCc2cccc(c2)CSC[C@@H](C(=O)N[C@@H](CC(=O)O)C(N)=O)NC(=O)[C@H](Cc2ccccc2)NC(=O)[C@H](CCC(=O)O)NC(=O)[C@H]([C@@H](C)O)NC(=O)[C@@H]2CCCN2C(=O)[C@@H]2CCCN2C1=O, also called 3BP-3320) [DOTA-Ttds-Nle-[Cys(3MeBn)-Pro-Pro-Thr-Glu-Phe-Cys]-Asp-NH2] : > 8 pKD

// recorded pKD Category for Hexanoyl-CPPTEFC-OH (linker 1-7 via TBMB(SCH2CH2NH-DOTA); SMILES CCCCCC(=O)N[C@H]1CSCc2cc(CSCCNC(=O)CN3CCN(CC(=O)O)CCN(CC(=O)O)CCN(CC(=O)O)CC3)cc(c2)CSC[C@@H](C(=O)O)NC(=O)[C@H](Cc2ccccc2)NC(=O)[C@H](CCC(=O)O)NC(=O)[C@H]([C@@H](C)O)NC(=O)[C@@H]2CCCN2C(=O)[C@@H]2CCCN2C1=O, also called 3BP-4250) [Hex-[Cys-(tMeBn(DOTA-AET))-Pro-Pro-Thr-Glu-Phe-Cys]-OH] : > 8 pKD

// recorded pKD Category for N4Ac-E[Ttds″][Nle]CPPTEFC-OH (linker 4-10 via 3MeBn; not fully specified (residue 1); printed as N4Ac--E(AGLU)--Ttds--Nle--[C(3MeBn)-PPTEFC]-OH, also called 3BP-4249) [N4Ac-Glu(AGLU′)-Ttds-Nle-[Cys-(3MeBn)-Pro-Pro-Thr-Glu-Phe-Cys]-OH] : > 8 pKD

// recorded pKD Category for Pentanesulfonyl-CPPTQFCD-NH2 (linker 1-7 via mXylylene; SMILES CCCCCS(=O)(=O)N[C@H]1CSCc2cccc(c2)CSC[C@@H](C(=O)N[C@@H](CC(=O)O)C(N)=O)NC(=O)[C@H](Cc2ccccc2)NC(=O)[C@H](CCC(N)=O)NC(=O)[C@H]([C@@H](C)O)NC(=O)[C@@H]2CCCN2C(=O)[C@@H]2CCCN2C1=O, also called 3BP-3514) [Pentyl-SO2-[Cys(3MeBn)-Pro-Pro-Thr-Gln-Phe-Cys]-Asp-NH2] : > 8 pKD

// recorded pKD Category for CPPTQFX (not fully specified; N-term Hex; X7 = AET; Cys1/AET7 thioether-cyclised via tMeBn(DOTA-AET), also called 3BP-3654) [Hex-[Cys(tMeBn(DOTA-AET))-Pro-Pro-Thr-Gln-Phe-AET]] : > 8 pKD

// recorded pKD Category for Hexanoyl-CPPTEFCD[Ttds″]K(DOTA)-NH2 (linker 1-7 via mXylylene; SMILES CCCCCC(=O)N[C@H]1CSCc2cccc(c2)CSC[C@@H](C(=O)N[C@@H](CC(=O)O)C(=O)NCCCOCCOCCOCCCNC(=O)CCC(=O)N[C@@H](CCCCNC(=O)CN2CCN(CC(=O)O)CCN(CC(=O)O)CCN(CC(=O)O)CC2)C(N)=O)NC(=O)[C@H](Cc2ccccc2)NC(=O)[C@H](CCC(=O)O)NC(=O)[C@H]([C@@H](C)O)NC(=O)[C@@H]2CCCN2C(=O)[C@@H]2CCCN2C1=O, also called 3BP-3396) [Hex-[Cys(3MeBn)-Pro-Pro-Thr-Glu-Phe-Cys]-Asp-Ttds-Lys(DOTA)-NH2] : > 8 pKD

// recorded pKD Category for Hexanoyl-CPPTQFCG-OH (linker 1-7 via tMeBn(DOTA-AET), also called 3BP-3656) [Hex-[Cys(tMeBn(DOTA-AET))-Pro-Pro-Thr-Gln-Phe-Cys]-Gly-OH] : > 8 pKD
